Species on record: Mus musculus
procedure text: Inhibitory activity against PG synthesis was measured in mouse brain microsomes.
Type: functional
pIC50: −log10 of the molar value.
measured endpoint: pIC50

• COc1ccc2c(c1)c(CC(=O)O)c(C)n2C(=O)c1ccc(Cl)cc1 = 6.30
• Cc1c(C(=O)c2ccc3ncccc3c2)c2cccc3c2n1C(CN1CCOCC1)CO3 (centres undefined) = 4.59
• Cc1c(C(=O)c2ccccc2F)c2cccc3c2n1C(CN1CCOCC1)CO3 (centres undefined) = 4.38
• COc1ccc(C(=O)c2c(C)n3c4c(cccc24)OCC3CN2CCOCC2)cc1 (centres undefined) = 4.14
• COc1ccc(C(=O)c2c(C)n3c4c(cccc24)OC[C@H]3CN2CCOCC2)cc1 = 4.30
• Cc1c(C(=O)c2cccc3ccccc23)c2cccc3c2n1[C@@H](CN1CCOCC1)CO3 = 5.00
• COc1ccc(C(=O)c2c(C)n(CCN3CCOCC3)c3ccccc23)cc1 = 5.30
• Cc1c(C(=O)c2cccc3ccccc23)c2cccc3c2n1[C@H](CN1CCOCC1)CO3 (stereo in doubt) = 5.05
• COc1ccc(C(=O)c2c(C)n3c4c(cccc24)OC[C@@H]3CN2CCOCC2)cc1 = 4.52
